Exercise: for every item that follows, state its recorded Dose.
# Species on record: Rattus norvegicus
# experiment: The distribution of the 131 I-labeled compound at 5 min was evaluated in rat heart as Percent of injected dose in the total organ
# Assay type: ADME, organism-based
# protocol_conditions: in vivo
Quick note: give the figure in %, leave out the unit.

For COc1cc(CC(C)N)c(OC)cc1I (stereo not drawn) , what is its reported Dose?
0.92

For CNC(C)Cc1cc(OC)c(I)cc1OC (stereo not drawn) , what is its reported Dose?
0.65

For CCCCCCNC(C)Cc1cc(OC)c(I)cc1OC (stereo not drawn) , what is its reported Dose?
1.5

For COc1cc(CC(C)N(C)C)c(OC)cc1I (stereo not drawn) , what is its reported Dose?
1.1

For COc1cc(CC(C)NCc2ccccc2)c(OC)cc1I (stereo not drawn) , what is its reported Dose?
0.77

For COc1cc(CC(C)NC(C)C)c(OC)cc1I (stereo not drawn) , what is its reported Dose?
0.79

For COc1cc(CC(C)N(C)Cc2ccccc2)c(OC)cc1I (stereo not drawn) , what is its reported Dose?
1.2

For COc1cc(CC(C)NCC#N)c(OC)cc1I (stereo not drawn) , what is its reported Dose?
0.69

For COc1cc(CC(C)NN)c(OC)cc1I (stereo not drawn) , what is its reported Dose?
0.4

For CCN(CC)C(C)Cc1cc(OC)c(I)cc1OC (stereo not drawn) , what is its reported Dose?
0.4

For COc1cc(CC(C)NCC2CC2)c(OC)cc1I (stereo not drawn) , what is its reported Dose?
0.71

For COc1cc(CC(C)N(C)C(C)C)c(OC)cc1I (stereo not drawn) , what is its reported Dose?
0.39

For COc1cc(CC(C)NCCCN(C)C)c(OC)cc1I (stereo not drawn) , what is its reported Dose?
1.9

* * *

# Species: Rattus norvegicus
# experiment: The distribution of the 131 I-labeled compound at 5 min was evaluated in rat brain as Percent of injected dose in the total organ
# Type: ADME, organism-based
# protocol_conditions: in vivo
Exercise: for every item that follows, state its recorded Dose.
Quick note: give the figure in %, leave out the unit.

For CCN(CC)C(C)Cc1cc(OC)c(I)cc1OC (stereo unspecified) , what is its reported Dose?
0.78

For COc1cc(CC(C)NCCCN(C)C)c(OC)cc1I (stereo unspecified) , what is its reported Dose?
0.05

For COc1cc(CC(C)NCC2CC2)c(OC)cc1I (stereo unspecified) , what is its reported Dose?
0.62

For CCCCCCNC(C)Cc1cc(OC)c(I)cc1OC (stereo unspecified) , what is its reported Dose?
0.63

For COc1cc(CC(C)NCc2ccccc2)c(OC)cc1I (stereo unspecified) , what is its reported Dose?
1.1

For COc1cc(CC(C)N(C)C(C)C)c(OC)cc1I (stereo unspecified) , what is its reported Dose?
0.23

* * *

Exercise: for every item that follows, state its recorded Dose.
# Organism: Rattus norvegicus
# experiment: The distribution of the 131 I-labeled compound at 30 min was evaluated in rat liver as Percent of injected dose per gram in the organ
# Type: ADME, organism-based
# protocol_conditions: in vivo, 0.5 h
Quick note: give the figure in %, leave out the unit.

For COc1cc(CC(C)N)c(OC)cc1I (configuration not stated) , what is its reported Dose?
0.8

For CNC(C)Cc1cc(OC)c(I)cc1OC (configuration not stated) , what is its reported Dose?
1.8

For COc1cc(CC(C)N(C)Cc2ccccc2)c(OC)cc1I (configuration not stated) , what is its reported Dose?
0.62

For COc1cc(CC(C)NCC2CC2)c(OC)cc1I (configuration not stated) , what is its reported Dose?
0.97

For COc1cc(CC(C)NCc2ccccc2)c(OC)cc1I (configuration not stated) , what is its reported Dose?
0.95

For COc1cc(CC(C)NCCCN(C)C)c(OC)cc1I (configuration not stated) , what is its reported Dose?
0.55

For COc1cc(CC(C)N(C)C)c(OC)cc1I (configuration not stated) , what is its reported Dose?
0.89

The measured values listed here are drawn from ChEMBL document CHEMBL1122702.
